Where these numbers come from: patent US12134610B2

molecular target: human somatostatin receptor subtype 2 (Homo sapiens, UniProt P30874); construct: expressed in transfected cells; experiment: Functional cAMP assay for SSTR2 agonists (HTRF) in CHO-K1 cells; assay type: cell-based; conditions: CHO-K1 cells stably expressing human SST2, 20 min; read-out: hSST2 cAMP Avg EC50
Sequence (P30874 whole entry): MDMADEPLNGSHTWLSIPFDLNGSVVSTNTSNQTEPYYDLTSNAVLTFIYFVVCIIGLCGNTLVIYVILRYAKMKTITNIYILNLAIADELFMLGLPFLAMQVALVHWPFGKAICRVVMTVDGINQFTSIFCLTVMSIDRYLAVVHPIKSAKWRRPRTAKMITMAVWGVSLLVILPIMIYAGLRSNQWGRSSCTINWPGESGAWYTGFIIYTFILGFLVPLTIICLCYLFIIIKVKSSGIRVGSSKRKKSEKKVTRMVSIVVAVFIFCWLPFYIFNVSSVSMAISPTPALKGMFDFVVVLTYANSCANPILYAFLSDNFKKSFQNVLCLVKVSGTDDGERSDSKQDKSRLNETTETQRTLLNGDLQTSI
MEASUREMENT NAME: EC50 (nM)
Use nM as the unit, but write only the number.

Prompt line: Report measured EC50; entry is CC[C@H](C)[C@@H]([C@@H](CC(=O)N1CCC[C@H]1[C@H](OC)[C@@H](C)C(=O)N[C@H](C)[C@@H](O)c1ccccc1)OC)N(C)C(=O)[C@@H](NC(=O)[C@H](C(C)C)N(C)C(=O)OCc1ccc(NC(=O)[C@H](C)NC(=O)[C@@H](NC(=O)[C@H](CCC(N)=O)NC(=O)CCOCCC(=O)NCCNc2ncc(-c3cc(C)cc(F)c3)c(N3CCC(N)CC3)c2-c2nc3ccc(Cl)cc3[nH]2)C(C)C)c(O[C@@H]2O[C@H](C(=O)O)[C@@H](O)[C@H](O)[C@H]2O)c1)C(C)C
Response line: 0.072
